Please provide measured Emax for the entries that follow.
testTarget: Adenosine receptor A1 (Homo sapiens, UniProt P30542)
Sequence (P30542 whole entry): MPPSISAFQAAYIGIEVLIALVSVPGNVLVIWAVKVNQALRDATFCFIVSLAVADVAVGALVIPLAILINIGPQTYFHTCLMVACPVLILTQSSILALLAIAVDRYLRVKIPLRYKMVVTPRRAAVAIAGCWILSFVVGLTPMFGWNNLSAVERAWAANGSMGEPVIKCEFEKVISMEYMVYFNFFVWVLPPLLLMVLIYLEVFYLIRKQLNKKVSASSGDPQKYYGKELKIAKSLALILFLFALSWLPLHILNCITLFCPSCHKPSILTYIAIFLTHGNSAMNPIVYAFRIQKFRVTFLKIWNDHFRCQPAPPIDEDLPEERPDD
methodNotes: Agonist activity at human A1AR expressed in FlpIn-CHO cells assessed as intracellular calcium mobilization by Fluo-4 dye-based fluorescence assay relative to control
Assay type: cell-based
Your answer should be a plain number; it is taken to be in %.

Task: # get_value(readout='Emax', item= `O=C(NCCCCCCNc1ncnc2c1ncn2[C@@H]1O[C@H](CO)[C@@H](O)[C@H]1O)c1cccc(-c2cc(C(=O)c3ccccc3)cs2)c1` )
Output: 39

Task: Reported Emax, compound `Nc1sc(-c2ccc(C(=O)NCCCCCCNc3nc(Cl)nc4c3ncn4[C@@H]3O[C@H](CO)[C@@H](O)[C@H]3O)cc2)c(-c2cccc(C(F)(F)F)c2)c1C(=O)c1ccccc1` : ____
Output: 20

Task: Quick one: Emax for `O=C(NCCCCCCNc1ncnc2c1ncn2[C@@H]1O[C@H](CO)[C@@H](O)[C@H]1O)c1ccc(-c2sccc2-c2cccc(C(F)(F)F)c2)cc1` ?
Output: 49

Task: Consider the compound `Nc1sc(-c2ccc(C(=O)NCCCCCCNc3ncnc4c3ncn4[C@@H]3O[C@H](CO)[C@@H](O)[C@H]3O)cc2)cc1C(=O)c1ccccc1` and give its measured Emax.
Output: 49

Task: Can you look up the measured Emax of `Nc1sc(-c2cccc(C(=O)NCCCCCCNc3ncnc4c3ncn4[C@@H]3O[C@H](CO)[C@@H](O)[C@H]3O)c2)c(-c2cccc(C(F)(F)F)c2)c1C(=O)c1ccccc1` for me?
Output: 48

Task: May I ask what Emax has been recorded for `Nc1sc(-c2ccc(C(=O)NCCCCCNc3ncnc4c3ncn4[C@@H]3O[C@H](CO)[C@@H](O)[C@H]3O)cc2)c(-c2cccc(C(F)(F)F)c2)c1C(=O)c1ccccc1` ?
Output: 31

Task: Query: Emax; subject: `CCNC(=O)[C@H]1O[C@@H](n2cnc3c(NCCCCCCNC(=O)c4ccc(-c5sc(N)c(C(=O)c6ccccc6)c5-c5cccc(C(F)(F)F)c5)cc4)ncnc32)[C@H](O)[C@@H]1O`
Output: 16

Task: For the compound shown here, `Nc1nc(NCCCCCCNC(=O)c2ccc(-c3sc(N)c(C(=O)c4ccccc4)c3-c3cccc(C(F)(F)F)c3)cc2)c2ncn([C@@H]3O[C@H](CO)[C@@H](O)[C@H]3O)c2n1` , give the reported Emax.
Output: 34

Task: Item `Nc1cc(-c2cccc(C(F)(F)F)c2)c(-c2ccc(C(=O)NCCCCCCNc3ncnc4c3ncn4[C@@H]3O[C@H](CO)[C@@H](O)[C@H]3O)cc2)s1` has what recorded Emax?
Output: 42

Task: Suppose we examine the compound `CCNC(=O)[C@H]1O[C@@H](n2cnc3c(N)ncnc32)[C@H](O)[C@@H]1O` ; what Emax value has been reported?
Output: 54

Task: What value of Emax has been recorded for this entry: `O=C(NCCCCCCNc1ncnc2c1ncn2[C@@H]1O[C@H](CO)[C@@H](O)[C@H]1O)c1cccc(-c2cccs2)c1`
Output: 49

Task: Could you share which Emax value was measured for `Nc1sc(-c2ccccc2C(=O)NCCCCCCNc2ncnc3c2ncn3[C@@H]2O[C@H](CO)[C@@H](O)[C@H]2O)c(-c2cccc(C(F)(F)F)c2)c1C(=O)c1ccccc1` ?
Output: 43
